molecular target: ACK (Homo sapiens); construct: screened for activity against several kinases in Jurkat cells; endogenous in cells; host or cells: Jurkat cell lysate; assay: Probe-based (AX9989) kinase profiling in Jurkat lysate: ACK; format: binding; conditions: screening concentration 0.1 μM; read-out: Kinase inhibition % at indicated screening concentration: ACK
Sequence (Q07912 whole entry): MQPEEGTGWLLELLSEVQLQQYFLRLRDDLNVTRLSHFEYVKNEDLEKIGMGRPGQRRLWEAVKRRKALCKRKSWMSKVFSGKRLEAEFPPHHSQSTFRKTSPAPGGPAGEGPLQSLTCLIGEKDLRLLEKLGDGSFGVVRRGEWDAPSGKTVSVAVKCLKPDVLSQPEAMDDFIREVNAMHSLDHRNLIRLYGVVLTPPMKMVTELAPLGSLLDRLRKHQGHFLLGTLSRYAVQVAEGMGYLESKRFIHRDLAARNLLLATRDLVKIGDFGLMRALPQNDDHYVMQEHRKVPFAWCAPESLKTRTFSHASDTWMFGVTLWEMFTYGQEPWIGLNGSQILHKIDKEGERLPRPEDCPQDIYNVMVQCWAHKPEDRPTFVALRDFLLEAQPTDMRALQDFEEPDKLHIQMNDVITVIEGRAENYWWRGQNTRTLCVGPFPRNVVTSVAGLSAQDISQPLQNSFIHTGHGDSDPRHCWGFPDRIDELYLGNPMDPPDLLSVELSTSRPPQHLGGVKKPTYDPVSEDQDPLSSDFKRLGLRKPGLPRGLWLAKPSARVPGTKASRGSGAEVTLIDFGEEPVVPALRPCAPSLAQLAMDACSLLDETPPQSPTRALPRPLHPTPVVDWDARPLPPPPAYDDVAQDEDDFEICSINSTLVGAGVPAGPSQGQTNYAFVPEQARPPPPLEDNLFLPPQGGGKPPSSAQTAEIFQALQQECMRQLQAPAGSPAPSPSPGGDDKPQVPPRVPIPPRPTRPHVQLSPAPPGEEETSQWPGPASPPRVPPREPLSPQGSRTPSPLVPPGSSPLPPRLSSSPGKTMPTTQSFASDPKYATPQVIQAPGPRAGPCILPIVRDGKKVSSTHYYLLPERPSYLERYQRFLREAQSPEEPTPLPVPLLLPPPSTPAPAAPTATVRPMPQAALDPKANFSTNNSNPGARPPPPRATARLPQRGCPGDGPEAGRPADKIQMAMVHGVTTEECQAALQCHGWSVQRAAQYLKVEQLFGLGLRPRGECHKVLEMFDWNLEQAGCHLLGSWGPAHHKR

| line_notation | inhibition at 0.1 µM |
| --- | --- |
| CCOc1cc(C(=O)N2CC(N3CCCCC3)C2)ccc1Nc1cc2c(cn1)N(C)C(=O)c1ccccc1N2C | ≤ 35% |
| CCOc1cc(C(=O)N2CC[C@@H](N3CCCCC3)C2)ccc1Nc1cc2c(cn1)N(C)C(=O)c1occc1N2C | ≤ 35% |
| CCOc1cc(C(=O)NCCN(C(C)C)C(C)C)ccc1Nc1cc2c(cn1)N(C)C(=O)c1ccccc1N2C | ≤ 35% |

* * *

tested on: human PBMCs; test: Cytokine response by primary human PBMCs stimulated with PMA/ionomycin or LPS; assay type: cell-based; details: PBMC, 100 ng/ml LPS 20 h, read-out: EC50 (μM) under LPS stimulation, IL-13
# Lookup of reported EC50 keyed by entry

| line_notation | EC50 / µM |
| --- | --- |
| CCOc1cc(C(=O)N2CCCN(C)CC2)ccc1Nc1cc2c(cn1)N(C)C(=O)c1ccccc1N2C | 6.9 |
| CCOc1cc(C(=O)N2CCC(N3CCCC3)CC2)ccc1Nc1cc2c(cn1)N(C)C(=O)c1ccccc1N2C | 3.12 |

* * *

# maps each entry to its pKd
target: TRIM33 (Homo sapiens, UniProt Q9UPN9); assay: Bromodomain binding assay: TRIM33
Sequence (Q9UPN9 957-1080 limits assumed): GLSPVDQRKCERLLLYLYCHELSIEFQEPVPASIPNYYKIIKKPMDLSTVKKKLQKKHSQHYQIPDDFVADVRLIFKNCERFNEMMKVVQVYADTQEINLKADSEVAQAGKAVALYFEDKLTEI
pKd: −log10 of the molar value.

| line_notation | target | pKd |
| --- | --- | --- |
| CCOc1cc(C(=O)N2CCC(N3CCCC3)CC2)ccc1Nc1cc2c(cn1)N(C)C(=O)c1ccccc1N2C | TRIM33 (Homo sapiens, UniProt Q9UPN9) | < 4.70 |
| CCOc1cc(C(=O)N[C@H]2CC[C@H](O)CC2)ccc1Nc1cc2c(cn1)N(C)C(=O)c1ccccc1N2C | TRIM33 (Homo sapiens, UniProt Q9UPN9) | < 4.70 |

* * *

system: AMPKa1 or AMPKa2; test: Probe-based (AX9989) kinase profiling in Jurkat lysate: AMPKa1 or AMPKa2; assay type: binding; conditions: screening concentration 0.1 μM
readout_label: Kinase inhibition % at indicated screening concentration: AMPKa1 or AMPKa2

| compound | result |
| --- | --- |
| CCOc1cc(C(=O)N2CCN(C3CC3)CC2)ccc1Nc1cc2c(cn1)N(C)C(=O)c1ccccc1N2C [Compound 39] | E (E is ≦35%) |
| CCOc1cc(C(=O)N2CC[C@@H](N3CCCCC3)C2)ccc1Nc1cc2c(cn1)N(C)C(=O)c1occc1N2C [Compound 56] | E (E is ≦35%) |
| CCOc1cc(C(=O)N2CC[C@@H](N(CC)CC)C2)ccc1Nc1cc2c(cn1)N(C)C(=O)c1occc1N2C [Compound 67] | E (E is ≦35%) |
| Cc1cc(C(=O)N2CC[C@@H](N(C)C)C2)ccc1Nc1cc2c(cn1)N(C)C(=O)c1ccccc1N2C [Compound 32] | E (E is ≦35%) |
| CCOc1cc(C(=O)NCCN(C(C)C)C(C)C)ccc1Nc1cc2c(cn1)N(C)C(=O)c1ccccc1N2C [Compound 55] | E (E is ≦35%) |
| CCOc1cc(C(=O)N2CCC(N3CCCC3)C2)ccc1Nc1cc2c(cn1)N(C)C(=O)c1occc1N2C (stereo not shown) [Compound 15] | E (E is ≦35%) |
| CCOc1cc(C(=O)N2CC[C@@H](NC)C2)ccc1Nc1cc2c(cn1)N(C)C(=O)c1ccccc1N2C [Compound 26] | E (E is ≦35%) |

The measured values listed here are drawn from patent US20170008888A1.
